system: ZIKV SPH; assay: Autophagy compound library screen, ZIKV SPH titer (TCID50) in Vero cells; type: cell-based, Zika virus; conditions: 10 µM compound, MOI 0.1, 40 h, TCID50; ± SEM, three independent trials
Recorded ZIKV SPH Relative Titer in Vero Cells for the following molecules

In the examples that follow, each entry is paired with its recorded ZIKV SPH Relative Titer in Vero Cells.
{"molecule": "C=CCNC1=C2C[C@@H](C)C[C@H](OC)[C@H](O)[C@@H](C)/C=C(\\C)[C@H](OC(N)=O)[C@@H](OC)/C=C\\C=C(/C)C(=O)NC(=CC1=O)C2=O", "ZIKV SPH Relative Titer in Vero Cells": "36.4 ± 20.8% of untreated control"}
{"molecule": "Cc1ccc(C(=O)Nc2ccc(S(=O)(=O)[O-])c3cc(S(=O)(=O)[O-])cc(S(=O)(=O)[O-])c23)cc1NC(=O)c1cccc(NC(=O)Nc2cccc(C(=O)Nc3cc(C(=O)Nc4ccc(S(=O)(=O)[O-])c5cc(S(=O)(=O)[O-])cc(S(=O)(=O)[O-])c45)ccc3C)c2)c1.[Na+].[Na+].[Na+].[Na+].[Na+].[Na+]", "ZIKV SPH Relative Titer in Vero Cells": "107.4 ± 44.8% of untreated control"}
{"molecule": "CCN(CC)CCCCN1c2ccccc2Oc2ccc(Cl)cc21.Cl [Akt Inhibitor X·HCl]", "ZIKV SPH Relative Titer in Vero Cells": "3.5 ± 3.3% of untreated control"}

Note: attention shifts to another entry.
The molecule identified as "Nc1ncnc2c1nc(Sc1ccc(Cl)cc1)n2[C@@H]1O[C@@H]2COP(=O)([O-])O[C@H]2[C@H]1O.[Na+]" registered its ZIKV SPH Relative Titer in Vero Cells at 107.8 ± 65.3% of untreated control
